biological target: Steroidogenic factor 1 (Homo sapiens) (UniProt Q13285); assay: SF1 (NR5A1) inverse agonist potency, late-stage follow-up, selectivity assay for LRH-1 inverse agonist project, cell-based, luminescence, dose response (AID 651977); conditions: SF1 cell-based luciferase reporter, inverse agonism
Sequence (Q13285 whole entry, looked up): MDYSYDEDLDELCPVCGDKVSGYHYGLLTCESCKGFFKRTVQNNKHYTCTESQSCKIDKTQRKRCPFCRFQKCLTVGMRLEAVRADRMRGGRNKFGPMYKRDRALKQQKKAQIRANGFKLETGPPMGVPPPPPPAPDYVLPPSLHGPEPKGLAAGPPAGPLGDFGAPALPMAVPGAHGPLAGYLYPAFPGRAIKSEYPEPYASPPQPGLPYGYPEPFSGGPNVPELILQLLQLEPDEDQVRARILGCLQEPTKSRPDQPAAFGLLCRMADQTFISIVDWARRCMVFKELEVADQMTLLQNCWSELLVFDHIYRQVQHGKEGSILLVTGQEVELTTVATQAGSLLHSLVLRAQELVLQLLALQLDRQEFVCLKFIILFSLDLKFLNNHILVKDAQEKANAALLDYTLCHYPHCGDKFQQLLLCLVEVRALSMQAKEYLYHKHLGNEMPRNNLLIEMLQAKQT
Activity calls are given as the source filed them. No rule for the calls is given here.
measured.parameter: IC50

[
  {
    "molecule": "CCc1cc(=O)[nH]c(SCC(=O)Nc2ccc3c(c2)OCCO3)n1",
    "IC50": "> 35.9 µM (inactive)"
  }
]

// input: 4 molecules below; output: IC50 for each
1. O=C(Nc1ccc(S(=O)(=O)N2CCOCC2)cc1)c1cccc([N+](=O)[O-])c1
2. CCOc1ccc(NC(=O)COC(=O)c2ccc3c(c2)OCCO3)cc1
3. CCOc1ccc(OCCC(=O)OCC(=O)Nc2ccc3c(c2)OCCO3)cc1
4. CC(=O)c1ccc(OC(C)C(=O)OCC(=O)NCCc2ccccc2)cc1 (stereo unspecified)

Result:
1. > 12 µM (inactive)
2. > 12 µM (inactive)
3. > 35.9 µM (inactive)
4. > 35.9 µM (inactive)

====

target: Steroidogenic factor 1 (Homo sapiens); test: SF1 (NR5A1) inverse agonist potency, late-stage follow-up, selectivity assay for LRH-1 inverse agonist project, cell-based, luminescence, dose response (AID 651977); details: SF1 cell-based luciferase reporter, inverse agonism
Active and inactive are the calls of the source. How the calls were made is not given here.
measured.parameter: IC50

In the examples that follow, each entry is paired with its recorded IC50.
[
  {
    "molecule": "O=C(CSc1nc(=O)n2cc(Cl)ccc2n1)Nc1ccc2c(c1)OCCO2",
    "IC50": "inactive"
  },
  {
    "molecule": "CCOc1ccc(NC(=O)COC(=O)COc2cccc3c2OC(C)(C)C3)cc1",
    "IC50": "> 35.9 µM (inactive)"
  },
  {
    "molecule": "COC(=O)c1ccc(NC(=O)CN2CCN(c3ccc(Cl)cc3)CC2)cc1",
    "IC50": "> 35.9 µM (inactive)"
  },
  {
    "molecule": "CCc1c(C)nc(SCC(=O)Nc2ccc3c(c2)OCCO3)[nH]c1=O",
    "IC50": "7.83 µM"
  },
  {
    "molecule": "NC(=O)C1CCN(C(=O)COc2ccc3c4c(c(=O)oc3c2)CCCC4)CC1",
    "IC50": "> 35.9 µM (inactive)"
  },
  {
    "molecule": "Cc1cccc(NC(=O)COC(=O)Cc2cccs2)c1C",
    "IC50": "> 35.9 µM (inactive)"
  }
]

Each molecule below has a reported value. Please supply its IC50.
1. Cc1ccc(NC(=O)CSc2sc3c(O)cc(=O)[nH]c3c2C#N)c(F)c1
2. Cc1ccn2c(=O)nc(SCC(=O)Nc3ccc4c(c3)OCCO4)nc2c1
3. COc1ccccc1Oc1nnnn1-c1ccc(C(N)=O)cc1
4. CC1SC(C)C(=O)N(CC(=O)Nc2ccc3c(c2)OCO3)C1=O (centres undefined)
5. COc1ccc(CCNC(=O)COC(=O)c2cccn2C)cc1
6. COC(=O)c1ccc(NC(=O)CSc2ccc(-c3ccccn3)nn2)cc1

Result:
1: > 35.9 µM (inactive); 2: > 35.9 µM (inactive); 3: inactive; 4: > 35.9 µM (inactive); 5: > 35.9 µM (inactive); 6: > 35.9 µM (inactive)

I need IC50 for every entry listed below, if you could help.
1. COc1ccc(NC(=O)CSc2sc3c(O)cc(=O)[nH]c3c2C#N)c(OC)c1
2. O=C(OCC(=O)N1CCN(C(=O)COC(=O)c2ccc(O)cc2O)CC1)c1ccc(O)cc1O
3. COc1ccc(NC(=O)COC(=O)c2c(-c3ccccc3)noc2C)cc1
4. COC(=O)c1ccc(CNC(=O)COC(=O)c2cc(Cl)nc(Cl)c2)cc1
5. COc1ccc(C2(C)NC(=O)N(CC(=O)NCCC3=CCCCC3)C2=O)cc1OC (centres undefined)
6. CCOc1ccc(NC(=O)CSc2nnc(C(C)C)n2CC)cc1
7. CCCc1cc(=O)oc2cc(OCC(=O)NCc3ccccn3)ccc12

Result:
1: > 35.9 µM (inactive); 2: 3.55 µM; 3: 3.19 µM; 4: inactive; 5: > 12 µM (inactive); 6: > 35.9 µM (inactive); 7: > 35.9 µM (inactive)

====

target: Steroidogenic factor 1 (Homo sapiens) (UniProt Q13285); assay: SF1 (NR5A1) inverse agonist potency, late-stage follow-up, selectivity assay for LRH-1 inverse agonist project, cell-based, luminescence, dose response (AID 651977); settings: SF1 cell-based luciferase reporter, inverse agonism
Calls of active or inactive are those of the source. No rule for the calls is given here.
Return exactly one item of label 1 = active, label 0 = inactive

[
  {
    "mol.smiles": "Cc1ccc(NC(=O)COC(=O)c2cc(=O)c3ccccc3o2)c(Br)c1",
    "group": "label 0"
  },
  {
    "mol.smiles": "O=C(Nc1nc2c(Cl)cccc2s1)c1ccc([N+](=O)[O-])o1",
    "group": "label 0"
  },
  {
    "mol.smiles": "CCOc1ccc(NC(=O)CN2CCN(CC(=O)Nc3ccc(OC)cc3)CC2)cc1",
    "group": "label 0"
  },
  {
    "mol.smiles": "COCC(=O)NC1CCN(CC(=O)Nc2ccc(OC)cc2[N+](=O)[O-])CC1",
    "group": "label 0"
  },
  {
    "mol.smiles": "O=C(COC(=O)c1ccc[n+]([O-])c1)Nc1ccc([N+](=O)[O-])cc1Cl",
    "group": "label 0"
  },
  {
    "mol.smiles": "Cc1cc(OCC(=O)Nc2nccs2)c2c(C)cc(=O)oc2c1",
    "group": "label 0"
  },
  {
    "mol.smiles": "O=C1CCCN2N=C(SCC(=O)Nc3ccc(Br)cc3)SC2=N1",
    "group": "label 0"
  },
  {
    "mol.smiles": "Cc1ccc2cccc(OCC(=O)NCCC3=CCCCC3)c2n1",
    "group": "label 1"
  }
]

Task: Lab log entry: Cc1cc(=O)oc2c(C)c(OCC(=O)NC3CC(C)(C)NC(C)(C)C3)ccc12 — outcome as called in the assay?
Result: label 0

Task: What classification did COc1ccc(NS(=O)(=O)c2ccc(OCC(=O)N3CCN(C)CC3)cc2)cc1Cl end up with in this test?
Result: label 1
